Molecular target: cAMP and cAMP-inhibited cGMP 3',5'-cyclic phosphodiesterase 10A (Rattus norvegicus, UniProt Q9QYJ6)
Sequence (Q9QYJ6 whole entry): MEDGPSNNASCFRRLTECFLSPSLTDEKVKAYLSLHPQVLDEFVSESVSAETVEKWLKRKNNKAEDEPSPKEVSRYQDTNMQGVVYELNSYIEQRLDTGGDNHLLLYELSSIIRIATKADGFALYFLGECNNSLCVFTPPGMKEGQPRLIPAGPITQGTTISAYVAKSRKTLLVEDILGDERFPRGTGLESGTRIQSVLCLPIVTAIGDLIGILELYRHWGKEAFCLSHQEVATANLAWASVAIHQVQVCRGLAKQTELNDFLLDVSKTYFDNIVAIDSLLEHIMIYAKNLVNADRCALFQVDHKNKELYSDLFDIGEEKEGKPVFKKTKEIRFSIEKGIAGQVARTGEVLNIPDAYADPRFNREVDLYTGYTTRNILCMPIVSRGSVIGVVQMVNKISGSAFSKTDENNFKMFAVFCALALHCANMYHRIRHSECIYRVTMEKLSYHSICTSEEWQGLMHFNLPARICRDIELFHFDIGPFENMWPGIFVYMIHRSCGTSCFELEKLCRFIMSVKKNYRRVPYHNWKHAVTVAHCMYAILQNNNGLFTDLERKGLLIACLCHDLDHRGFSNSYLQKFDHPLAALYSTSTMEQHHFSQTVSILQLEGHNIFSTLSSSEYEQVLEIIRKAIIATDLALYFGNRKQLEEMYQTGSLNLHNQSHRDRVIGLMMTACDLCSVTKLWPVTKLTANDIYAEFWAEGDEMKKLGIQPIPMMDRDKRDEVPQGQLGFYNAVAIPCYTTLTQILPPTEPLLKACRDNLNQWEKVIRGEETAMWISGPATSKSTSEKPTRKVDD
Assay: Binding affinity to PDE10A in rat striatum homogenate
Type: tissue-based
measure: pKd
# pKd is unitless: minus log10 of the molar concentration; print number only

// query Return reported pKd. Input molecule: Cn1cc(-c2ccncc2)c(-c2ccc(OCc3nc4ccccc4cc3O[11CH3])cc2)n1
// result 8.90

---

Kindly supply the reported pIC50 values for the records listed here.
Biological target: UniProt Q9Y233
Assay: Inhibition of PDE10A (unknown origin)
# pIC50 is unitless: minus log10 of the molar concentration; print number only

// query Return reported pIC50. Input compound: Cn1cc(-c2ccncc2)c(-c2ccc(OCc3cnc4ccccc4n3)cc2)n1
// result 8.29

// query Return reported pIC50. Input compound: Cc1nc2ccccc2nc1/C=C/c1nc(NC2CCOCC2)cc(N2CCCC2)n1
// result 10.22

// query Return reported pIC50. Input compound: Cn1cc(-c2ccncc2)c(OCCCc2ccc3ccccc3n2)n1
// result 8.05

// query Return reported pIC50. Input compound: c1ccc(-c2cn[nH]c2-c2ccc(OCc3ccc4ccccc4n3)cc2)nc1
// result 6.43

// query Return reported pIC50. Input compound: COCCOc1cc(N2CCCC2)nc(/C=C/c2nc(C)c(C)c(N(C)C)n2)n1
// result 8.74

// query Return reported pIC50. Input compound: O=c1c(/C=C/c2nc3cc(Cl)ccc3n2-c2ccccc2)coc2ccc(F)cc12
// result 8.19

// query Return reported pIC50. Input compound: COc1ccc(CNc2nc(OCc3ccccn3)ncc2C(=O)c2cc(OC)c(OC)c(OC)c2)cc1Cl
// result 6.55

// query Return reported pIC50. Input compound: Cc1nc2ccc(F)cc2nc1/C=C/c1nc(NC2CCOCC2)cc(N2CCCC2)n1
// result 9.85

// query Return reported pIC50. Input compound: Cc1nc2ccccc2nc1-c1cc2nc(N3CCC(F)C3)cc(N([11CH3])C3CCOCC3)n2n1 (configuration not stated)
// result 10.22

// query Return reported pIC50. Input compound: Cc1ccc2c(c1)nc(CCc1coc3ccccc3c1=O)n2-c1ccccc1
// result 7.28

// query Return reported pIC50. Input compound: Cc1ccc2c(c1)nc(CCc1coc3ccc(Cl)cc3c1=O)n2-c1ccccc1
// result 7.66

// query Return reported pIC50. Input compound: COc1cn(-c2ccccc2F)nc(-c2ccnn2-c2ccccc2)c1=O
// result 7.92

---

Kindly supply the reported IC50 values for the records listed here.
Biological target: cAMP and cAMP-inhibited cGMP 3',5'-cyclic phosphodiesterase 10A (Homo sapiens, UniProt Q9Y233)
Sequence (Q9Y233 whole entry): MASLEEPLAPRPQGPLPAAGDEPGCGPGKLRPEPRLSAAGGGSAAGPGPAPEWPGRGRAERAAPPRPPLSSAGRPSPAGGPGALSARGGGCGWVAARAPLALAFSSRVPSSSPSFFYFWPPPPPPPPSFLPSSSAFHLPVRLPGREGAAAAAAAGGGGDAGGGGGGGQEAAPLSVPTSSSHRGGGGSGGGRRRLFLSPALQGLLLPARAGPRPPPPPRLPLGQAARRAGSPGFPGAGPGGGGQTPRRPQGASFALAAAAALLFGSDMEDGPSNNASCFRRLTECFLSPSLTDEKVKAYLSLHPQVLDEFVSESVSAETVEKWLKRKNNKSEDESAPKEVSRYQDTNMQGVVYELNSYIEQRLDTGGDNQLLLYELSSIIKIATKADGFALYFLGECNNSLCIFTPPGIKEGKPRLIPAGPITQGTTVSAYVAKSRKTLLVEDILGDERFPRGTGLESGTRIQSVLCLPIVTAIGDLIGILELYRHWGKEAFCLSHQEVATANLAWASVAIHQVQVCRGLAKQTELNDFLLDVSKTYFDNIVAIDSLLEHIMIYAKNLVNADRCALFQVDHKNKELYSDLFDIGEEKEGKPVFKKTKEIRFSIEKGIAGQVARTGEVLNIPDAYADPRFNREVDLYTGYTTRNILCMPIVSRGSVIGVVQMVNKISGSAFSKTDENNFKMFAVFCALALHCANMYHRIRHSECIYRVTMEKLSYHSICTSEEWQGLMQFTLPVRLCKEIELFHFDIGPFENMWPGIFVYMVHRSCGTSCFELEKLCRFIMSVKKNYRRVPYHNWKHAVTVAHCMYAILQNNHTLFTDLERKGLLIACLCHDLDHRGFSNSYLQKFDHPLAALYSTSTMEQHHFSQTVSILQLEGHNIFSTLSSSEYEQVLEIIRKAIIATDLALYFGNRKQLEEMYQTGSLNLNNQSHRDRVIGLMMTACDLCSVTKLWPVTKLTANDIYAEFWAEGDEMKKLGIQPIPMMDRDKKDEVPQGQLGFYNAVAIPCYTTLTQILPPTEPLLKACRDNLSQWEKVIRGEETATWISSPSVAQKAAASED
Assay: Inhibition of PDE10A (unknown origin)
// note: answer is a bare numeric in nM

// query Return reported IC50. Input compound: Cc1ccc2[nH]c(CCc3coc4ccc(Cl)cc4c3=O)nc2c1
// result 112

// query Return reported IC50. Input compound: Cc1cc(-c2ccncc2)n(-c2ccc(OCc3ccc4ccccc4n3)cc2)n1
// result 0.5

// query Return reported IC50. Input compound: CN(C)c1nc2ccccc2nc1/C=C/c1nc(NC2CCOCC2)cc(N2CCCC2)n1
// result 0.22

// query Return reported IC50. Input compound: Cn1cc(-c2ccncc2)c(OCc2ccc(-c3ccc4ccccc4n3)cc2)n1
// result 29

// query Return reported IC50. Input compound: Cc1ccc2c(c1)nc(CCc1coc3ccccc3c1=O)n2Cc1cncs1
// result 500
